- ASSAYED_SYSTEM: Muscarinic acetylcholine receptor
Criterion: IC50 strictly less than 4 nM. Met: rule met. Not met: rule not met.

{"MOLECULE": "C/C(C#Cc1ccc(C)cc1)=C/CO/N=C1/CN2CCC1C2 (configuration not stated)", "CATEGORY_LABEL": "rule not met"}
{"MOLECULE": "C/C(C#Cc1ccccc1)=C/CO/N=C1/CN2CCC1C2 (configuration not stated)", "CATEGORY_LABEL": "rule met"}
{"MOLECULE": "C#C/C(C)=C\\CO/N=C1/CN2CCC1C2 (configuration not stated)", "CATEGORY_LABEL": "rule not met"}
{"MOLECULE": "C/C(C#Cc1cccs1)=C/CO/N=C1\\CN2CCC1C2 (configuration not stated)", "CATEGORY_LABEL": "rule met"}
{"MOLECULE": "COc1ccc(C#C/C(C)=C\\CO/N=C2/CN3CCC2C3)cc1 (configuration not stated)", "CATEGORY_LABEL": "rule not met"}
{"MOLECULE": "C#C/C(C)=C/CO/N=C1/CN2CCC1C2 (configuration not stated)", "CATEGORY_LABEL": "rule not met"}
{"MOLECULE": "C/C(C#Cc1ccc(Cl)cc1)=C/CO/N=C1/CN2CCC1C2 (configuration not stated)", "CATEGORY_LABEL": "rule met"}
{"MOLECULE": "COc1ccc(C#C/C(C)=C/CO/N=C2\\CN3CCC2C3)cc1 (configuration not stated)", "CATEGORY_LABEL": "rule not met"}
{"MOLECULE": "C/C(C#Cc1ccccc1)=C\\CO/N=C1\\CN2CCC1C2 (configuration not stated)", "CATEGORY_LABEL": "rule not met"}
{"MOLECULE": "C/C(C#Cc1ccc(Cl)cc1)=C\\CO/N=C1\\CN2CCC1C2 (configuration not stated)", "CATEGORY_LABEL": "rule not met"}
{"MOLECULE": "C/C(C#Cc1cccs1)=C\\CO/N=C1\\CN2CCC1C2 (configuration not stated)", "CATEGORY_LABEL": "rule not met"}
{"MOLECULE": "C/C(C#Cc1ccc(Cl)c(Cl)c1)=C\\CO/N=C1\\CN2CCC1C2 (configuration not stated)", "CATEGORY_LABEL": "rule met"}
{"MOLECULE": "C/C(C#Cc1ccccc1)=C/CO/N=C1\\CN2CCC1C2 (configuration not stated)", "CATEGORY_LABEL": "rule met"}
{"MOLECULE": "C/C(C#Cc1ccc(C)cc1)=C/CO/N=C1\\CN2CCC1C2 (configuration not stated)", "CATEGORY_LABEL": "rule met"}
{"MOLECULE": "COc1ccc(C#C/C(C)=C\\CO/N=C2/CN3CCC2C3)cc1OC (configuration not stated)", "CATEGORY_LABEL": "rule not met"}
{"MOLECULE": "COc1ccc(C#C/C(C)=C\\CO/N=C2\\CN3CCC2C3)cc1OC (configuration not stated)", "CATEGORY_LABEL": "rule met"}
{"MOLECULE": "COc1ccc(C#C/C(C)=C/CO/N=C2\\CN3CCC2C3)cc1OC (configuration not stated)", "CATEGORY_LABEL": "rule not met"}
{"MOLECULE": "C/C(C#Cc1ccc(C)cc1)=C\\CO/N=C1\\CN2CCC1C2 (configuration not stated)", "CATEGORY_LABEL": "rule not met"}
{"MOLECULE": "C/C(C#Cc1cccs1)=C\\CO/N=C1/CN2CCC1C2 (configuration not stated)", "CATEGORY_LABEL": "rule not met"}
{"MOLECULE": "COc1ccc(C#C/C(C)=C\\CO/N=C2\\CN3CCC2C3)cc1 (configuration not stated)", "CATEGORY_LABEL": "rule met"}

From: ChEMBL document CHEMBL1128636
